Target: Voltage-gated potassium channel (K+V channel) (Homo sapiens, UniProt O43525+O43526+O95259+P16389+P17658+P22001+P22459+P22460+P48547+P51787+P56696+Q03721+Q09470+Q12809+Q14003+Q14721+Q16322+Q6PIU1+Q8NCM2+Q8TAE7+Q8TDN1+Q8TDN2+Q92953+Q96KK3+Q96L42+Q96PR1+Q96RP8+Q9BQ31+Q9H252+Q9H3M0+Q9NR82+Q9NS40+Q9NSA2+Q9NZV8+Q9UIX4+Q9UJ96+Q9UK17+Q9ULD8+Q9ULS6+Q9UQ05)
Experiment: K+V channel CEREP ligand profiling
Format: protein assay
Conditions: compound concentration 10 uM
readout-name: inhibition at 10 µM

For the compound `c1ccc(N2CCN(Cc3nc4ccccc4[nH]3)CC2)nc1` , give its measured inhibition at 10 µM value.
< 10% (not active)

* * *

Molecular target: Voltage-gated L-type calcium channel (Ca2+ channel) (Homo sapiens, UniProt O60840+Q01668+Q13698+Q13936)
Experiment: Ca2+ channel CEREP ligand profiling
Format: protein assay
Details: compound concentration 10 uM
readout-name: inhibition at 10 µM

For the compound `c1ccc(N2CCN(Cc3nc4ccccc4[nH]3)CC2)nc1` , give its measured inhibition at 10 µM value.
< 10% (not active)

* * *

Molecular target: Sodium channel alpha subunit (Na+ channel) (Homo sapiens, UniProt P35498+P35499+Q01118+Q14524+Q15858+Q99250+Q9NY46+Q9UI33+Q9UQD0+Q9Y5Y9)
Assay: Na+ channel CEREP ligand profiling
Format: protein assay
Conditions: compound concentration 10 uM
readout-name: inhibition at 10 µM

For the molecule `c1ccc(N2CCN(Cc3nc4ccccc4[nH]3)CC2)nc1` , give its measured inhibition at 10 µM value.
< 10% (not active)
